B1: library; a variant is named by its letters at N, in order (parent)
chain: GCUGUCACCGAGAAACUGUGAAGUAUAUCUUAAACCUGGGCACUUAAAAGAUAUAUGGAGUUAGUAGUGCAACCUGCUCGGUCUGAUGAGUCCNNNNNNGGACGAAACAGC

Variants of: B1
assayMethodText: normalized RNA/DNA level with ligand (relative to sTRSVctl = 100) (log10 (% of sTRSVctl)); HEK293T; ligand: cyclic di-GMP (c-di-GMP-II aptamer); ligand concentration (+) RNA-Seq: 1 mM; higher = less ribozyme self-cleavage, higher mRNA level
conditionNotes: reporter: mCherry (pCS4076), ligand present: yes
assayEndpoint: normalized RNA/DNA level with ligand (log10)

In [3]: df
Out[3]:
    mutationstring   val
 0          UGACCA  1.88
 1          CUACGU  1.82
 2          AACCAU  1.76
 3          CCAGAC  1.83
 4          UGCCGC   1.9
 5          ACUCCA  1.84
 6          UUAUUC  1.88
 7          UUGUUG  1.86
 8          CAGCGU  1.84
 9          AAUAUA  1.72
10          AAUUUG  1.75
11          UUCUGU  1.86
12          AUGCUC  1.85
13          AAUAUU  1.83
14          GGAAAA  1.49
15          CACAGU  1.85
16          CCAUCG  1.84
17          UGUCGU  1.84
18          GGCAAU  1.75
19          UCCCUA  1.84
20          GAGUGA  1.79
21          GUAUCC  1.86
22          CAACAC  1.77
23          UAGCCG  1.93
24          CUCCAA  1.72
25          GUCCGC  1.93
26          GAGCAU  1.91
27          GAGGCA  1.86
28          GGAGAC  1.85
29          AGGCCC  1.95
30          UGGAAG  1.81
31          ACACGG  1.69
32          UGUAAG  1.84
33          UGCAUG  1.85
34          CGUCCU  1.78
35          CCCUCG  1.91
36          UAAUCG  1.82
37          GAUGAU  1.75
38          GAGUGC  1.86
39          GCAUGC  1.81
40          GCUAAG  1.71
41          GUCGCC  1.89
42          UCGUGG  1.89
43          UUUGGA  1.79
44          AAAUAA  1.68
45          AUCUAC  1.81
46          ACAACA  1.68
47          ACAAUU  1.52
48          CUGGUU  1.83
49          CGUAUC  1.76
50          UCGGCG  1.96
51          GUGGCC  1.97
52          CUUGAG  1.79
53          UAACUC  1.88
54          AUGGCC   1.9
55          AACUUC  1.82
56          AUCUAU  1.79
57          UCGGAA  1.49
58          CGAACA   1.7
59          CUCAAC   1.8
60          UACUAC  1.87
61          GAUGUU  1.78
62          CCCCCG  1.84
63          GCACCU  1.85
64          GUUUCU  1.86
65          AACGAC  1.79
66          GAUUAU  1.77
67          UUAACA   1.8
68          AUGUUG  1.72
69          GUCAGA  1.76
70          UUCCAG  1.89
71          AGGGUU  1.77
72          CGGCAC   1.8
73          AAUGAG  1.71
74          UGACUA  1.78
75          CAGUCU  1.68
76          GUUCAG  1.86
77          ACUUUG  1.76
78          UCGUCA  1.82
79          GCAUAG  1.66
80          GUAGCC   1.8
81          CGGAAC  1.62
82          UUAUAC  1.86
83          UCCACA  1.87
84          CGGCAU  1.64
85          CGCUCC  1.89
86          AACACC  1.73
87          UCCGUU  1.85
88          GAAAAC  1.74
89          UGCAUA  1.84
90          GGUUUU  1.84
